Target: T1, Tsr2-N (recombinant, binding assays) (S. cerevisiae (yeast), UniProt Q06672 1-152)
T1 chain: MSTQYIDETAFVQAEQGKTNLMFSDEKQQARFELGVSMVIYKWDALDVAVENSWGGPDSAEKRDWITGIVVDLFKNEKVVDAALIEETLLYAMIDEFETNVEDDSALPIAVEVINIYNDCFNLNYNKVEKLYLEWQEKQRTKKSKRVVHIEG
Assay: ITC
endpoint-label: Kd (µM)
One number for each entry, in µM.

Item under review: RPRFNRENKVSPADAAKKAL [ESS2 peptide] . Reported Kd?
0.72
